# experiment: Crystallization determinations, solubility comments (Table IV)
# Assay type: physicochemical
# studyConditions: organic solvent or mixture; solvent ethyl acetate, cooling at 5° C.
propertyLabel: Solubility

Lab note: measured Solubility of O=C1Nc2ccc3ncsc3c2C1=CNc1ccc(S(=O)(=O)NCc2ccncc2)cc1 [Form A] was < 60 µg/mL

----------
# experiment: Solubilities in solvent media (PEG 400, transcutol, methanol)
# Format: physicochemical
# studyConditions: transcutol, organic solvent or mixture, solvent transcutol; read-out: Solubility
propertyLabel: Solubility (µg/mL)
# unit: µg/mL | format: bare number

Lab note: measured Solubility of O=C1Nc2ccc3ncsc3c2C1=CNc1ccc(S(=O)(=O)NCc2ccncc2)cc1 [Form A] was 3150

----------
# experiment: Solubilities in solvent media (PEG 400, transcutol, methanol)
# Assay type: physicochemical
# studyConditions: polyethylene glycol 400, organic solvent or mixture, solvent PEG 400 (polyethylene glycol 400); read-out: Solubility
propertyLabel: Solubility (mg/mL)
# unit: mg/mL | format: bare number

Lab note: measured Solubility of O=C1Nc2ccc3ncsc3c2C1=CNc1ccc(S(=O)(=O)NCc2ccncc2)cc1 [Form A] was 4.76
